Target: ER-alpha (WT) (Homo sapiens, UniProt P03372)
Construct: endogenous in cells; host or cells: MCF7 breast cancer cells
Sequence (P03372 whole entry): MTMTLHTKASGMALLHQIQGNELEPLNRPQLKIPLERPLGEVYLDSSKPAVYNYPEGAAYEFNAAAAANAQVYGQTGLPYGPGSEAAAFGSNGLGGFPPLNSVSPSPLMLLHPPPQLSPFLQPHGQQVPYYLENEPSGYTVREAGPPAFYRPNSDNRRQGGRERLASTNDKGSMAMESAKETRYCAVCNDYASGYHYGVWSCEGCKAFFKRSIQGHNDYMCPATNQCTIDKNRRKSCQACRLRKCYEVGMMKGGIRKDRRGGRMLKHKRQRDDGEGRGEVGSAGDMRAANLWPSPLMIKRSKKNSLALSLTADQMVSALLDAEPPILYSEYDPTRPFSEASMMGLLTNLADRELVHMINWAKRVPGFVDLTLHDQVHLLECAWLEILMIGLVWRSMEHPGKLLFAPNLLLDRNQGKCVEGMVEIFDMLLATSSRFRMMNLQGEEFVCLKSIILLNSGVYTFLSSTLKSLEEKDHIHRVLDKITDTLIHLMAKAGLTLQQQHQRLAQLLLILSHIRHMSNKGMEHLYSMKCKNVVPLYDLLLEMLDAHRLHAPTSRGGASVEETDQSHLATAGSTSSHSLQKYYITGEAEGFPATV
Test: Breast Cancer Cell ERa High Content Fluorescence Imaging Degradation Assay (MCF7 HCS)
Assay type: cell-based
Settings: MCF7 breast cancer cells, 4 hours incubation; plateau of the maximal effect; DMSO and Fulvestrant define 0% and 100% changes in ESR1
measured-attribute: ERalpha (WT) MCF7 HCS (S inf) (%)
Only the number, expressed in %, is required.

Below, 6 compounds whose answers are already recorded.
Oc1ccc2c(c1)CCN(CC(F)(F)F)[C@H]2c1c(F)cc(OCCN2CC(CF)C2)cc1F ... −90
Oc1ccc2c(c1)CCN(c1ccccc1)C2c1ccc(OC2CN(CCCF)C2)cc1 (stereo not shown) ... −98
CS(=O)(=O)N1CCc2cc(O)ccc2[C@H]1c1ccc(OCCN2CC(CF)C2)cc1 (single isomer, unassigned) ... −85
C[C@@H]1CCN(CCOc2ccc([C@@]3(C)c4ccc(O)cc4CCN3CC(C)(C)F)cc2)C1 ... −57
CC(C)(F)C(=O)N1CCc2cc(O)ccc2[C@H]1c1ccc(OCCN2CC(CF)C2)cc1 (single isomer, unassigned) ... −90
C[C@@H]1Cc2c(ccc3[nH]ncc23)[C@@H](c2c(F)cc(OCCN3CC(CF)C3)cc2F)N1CC(C)(C)F (single isomer, unassigned) ... −98.8

State its ERalpha (WT) MCF7 HCS (S inf) for this compound: `C[C@H]1Cc2cc(O)ccc2[C@H](c2ccc(OCCN3CC(CF)C3)cc2)N1CC(F)(F)CO`
−101
